Provenance of the data: patent US8299262B2

# Test system: Pyrenophora teres
# experimental.details: Synergistic mixtures, microtiter test, net blotch pathogen Pyrenophora teres (Use Example 29)
# Type: cell-based
# applied.conditions: single compound, 0.25 ppm
Rule: measured Observed efficacy (%) below 5% gets true; anything equal to or greater than 5% gets false.

Record excerpt, results attached:
Cc1nccc(CNS(=O)(=O)c2ccc(Oc3ccccn3)cc2)c1C; true
Cc1cc(Oc2ccc(C(F)(F)F)cn2)ccc1S(=O)(=O)NCc1ccnc(C)c1C; false
COc1cnccc1CNS(=O)(=O)c1ccc(Oc2ccccn2)cc1; true
COc1cc(CNS(=O)(=O)c2ccc(Oc3ccccn3)cc2)ccn1; false
Cc1nccc(CNS(=O)(=O)c2ccc(Oc3ccc(Br)cn3)cc2)c1C; false

# strict comparison: is reported Observed efficacy (%) < 5%? input = COc1cc(CNS(=O)(=O)c2ccc(Oc3ncc(C(F)(F)F)cc3C)cc2)ccn1 false

# strict comparison: is reported Observed efficacy (%) < 5%? input = COc1cc(CNS(=O)(=O)c2ccc(Oc3ccc(Cl)cn3)cc2)ccn1 false

# strict comparison: is reported Observed efficacy (%) < 5%? input = O=C(Nc1ccccc1-c1ccc(Cl)cc1)c1cccnc1Cl [Boscalid, reference compound] false

# strict comparison: is reported Observed efficacy (%) < 5%? input = Cc1nccc(CNS(=O)(=O)c2ccc(Oc3ncccc3C(F)(F)F)cc2)c1C true

* * *

# Tested on: Colletotrichum truncatum
# experimental.details: Synergistic mixtures, microtiter test, Colletotrichum truncatum (Use Example 28)
# Type: cell-based
# applied.conditions: single compound, 4 ppm
Observed efficacy (%) values, listed per item
I only need the number, in %, no unit after it.

Look over these answered cases.
COc1cc(CNS(=O)(=O)c2ccc(Oc3ncc(C(F)(F)F)cc3C)cc2)ccn1; 37
Cc1nccc(CNS(=O)(=O)c2ccc(Oc3ncccc3C(F)(F)F)cc2)c1C; 20

Item COc1cc(CNS(=O)(=O)c2ccc(Oc3cccc(C)n3)cc2)ccn1 ; assay system Colletotrichum truncatum; Observed efficacy (%) reported as 25

* * *

# Tested on: Fusarium culmorum
# experimental.details: Synergistic mixtures, microtiter test, Fusarium culmorum (Use Example 27)
# Type: cell-based
# applied.conditions: single compound, 16 ppm
observed.property: Observed efficacy (%)
I only need the number, in %, no unit after it.

Cc1nccc(CNS(=O)(=O)c2ccc(Oc3ccccn3)cc2)c1C; 1
O=S(=O)(NCc1ccncc1)c1ccc(Oc2ccc(C(F)(F)F)cn2)cc1; 0
COc1cc(CNS(=O)(=O)c2ccc(Oc3ncccc3C(F)(F)F)cc2)ccn1; 2
O=C(Nc1ccccc1-c1ccc(Cl)cc1)c1cccnc1Cl [Boscalid, reference compound]; 1
COc1cc(CNS(=O)(=O)c2ccc(Oc3cccc(C)n3)cc2)ccn1; 2

The reported Observed efficacy (%) of the compound Cc1nccc(CNS(=O)(=O)c2ccc(Oc3ncc(C(F)(F)F)cc3Cl)cc2)c1C was 0

* * *

# Test system: Puccinia recondita
# experimental.details: Synergistic mixtures, greenhouse, preventative control of brown rust on wheat caused by Puccinia recondita (Use Example 34)
# Assay type: in vivo
# applied.conditions: single compound, 4 ppm, untreated control 90% disease
# Method: These percentages were converted into efficacies. An efficacy of 0 means that the growth level of the pathogens corresponds to that of the untreated control; an efficacy of 100 means that the pathogens were not growing. The expected efficacies of active compound mixtures were determined using Colby's formula [R. S. Colby, Calculating synergistic and antagonistic responses of herbicide combinations, Weeds 15, 20-22 (1967)] and compared with the observed efficacies. […]
Observed efficacy (%) values, listed per item
// return the numeric value with its unit appended

Look over these answered cases.
COc1cc(CNS(=O)(=O)c2ccc(Oc3ncc(C(F)(F)F)cc3C)cc2)ccn1 [Example 160]; 0%
Cc1nccc(CNS(=O)(=O)c2ccc(Oc3ncc(C(F)(F)F)cc3Cl)cc2)c1C [Example 27]; 0%
Cc1cc(Oc2ccc(C(F)(F)F)cn2)ccc1S(=O)(=O)NCc1ccnc(C)c1C [Example 203]; 22%
O=C(Nc1ccccc1-c1ccc(Cl)cc1)c1cccnc1Cl [Boscalid, reference compound]; 0%
COc1cnccc1CNS(=O)(=O)c1ccc(Oc2nccc(C(F)(F)F)n2)cc1 [Example 64]; 0%

The reported Observed efficacy (%) of the compound COc1cc(CNS(=O)(=O)c2ccc(Oc3cccc(C)n3)cc2)ccn1 [Example 45] was 0%

* * *

# System: Pyrenophora teres
# experimental.details: Synergistic mixtures, microtiter test, net blotch pathogen Pyrenophora teres (Use Example 29)
# Format: cell-based
# applied.conditions: single compound, 1 ppm
observed.property: Observed efficacy (%)
// return the numeric value with its unit appended

The reported Observed efficacy (%) of the compound COc1cc(CNS(=O)(=O)c2ccc(Oc3cccc(C)n3)cc2)ccn1 [Example 45] was 25%

The reported Observed efficacy (%) of the compound Cc1nccc(CNS(=O)(=O)c2ccc(Oc3ncc(C(F)(F)F)cc3Cl)cc2)c1C [Example 27] was 31%

The reported Observed efficacy (%) of the compound COc1cc(CNS(=O)(=O)c2ccc(Oc3ccccn3)cc2)ccn1 [Example 7] was 28%

The reported Observed efficacy (%) of the compound COc1cnccc1CNS(=O)(=O)c1ccc(Oc2ccccn2)cc1 [Example 8] was 9%

* * *

# Test system: Gaeumannomyces graminis
# experimental.details: Synergistic mixtures, microtiter test, Gaeumannomyces graminis (Use Example 30)
# Assay type: cell-based
# applied.conditions: single compound, 0.016 ppm
Rule: measured Observed efficacy (%) below 10% gets true (1); anything equal to or greater than 10% gets false (0).

Cc1nccc(CNS(=O)(=O)c2ccc(Oc3ncc(C(F)(F)F)cc3Cl)cc2)c1C [Example 27]; false (0)
N#Cc1c(Cl)c(Cl)c(Cl)c(C#N)c1Cl [Chlorothalonil, reference compound]; true (1)
COc1cc(CNS(=O)(=O)c2ccc(Oc3ncccc3C(F)(F)F)cc2)ccn1 [Example 13]; true (1)
COc1cc(CNS(=O)(=O)c2ccc(Oc3ccc(C(F)(F)F)cn3)cc2)ccn1 [Example 12]; false (0)

Here is another compound to look at.
# strict comparison: is reported Observed efficacy (%) < 10%? input = O=C1C2CC=CCC2C(=O)N1SC(Cl)(Cl)Cl (centres unmarked) [Captan, reference compound] false (0)

* * *

Observed efficacy (%) values, listed per item
# System: Fusarium culmorum
# experimental.details: Synergistic mixtures, microtiter test, Fusarium culmorum (Use Example 27)
# Format: cell-based
# applied.conditions: single compound, 16 ppm
I only need the number, in %, no unit after it.

COc1cnccc1CNS(=O)(=O)c1ccc(Oc2ccccn2)cc1; 0
COc1cc(CNS(=O)(=O)c2ccc(Oc3ccc(Cl)cn3)cc2)ccn1; 1
COc1cnccc1CNS(=O)(=O)c1ccc(Oc2nccc(C(F)(F)F)n2)cc1; 0
Cc1nccc(CNS(=O)(=O)c2ccc(Oc3ccc(Br)cn3)cc2)c1C; 1
COc1cc(CNS(=O)(=O)c2ccc(Oc3ncc(C(F)(F)F)cc3C)cc2)ccn1; 3

The reported Observed efficacy (%) of the compound COc1cc(CNS(=O)(=O)c2ccc(Oc3ccccn3)cc2)ccn1 was 7

The reported Observed efficacy (%) of the compound Cc1nccc(CNS(=O)(=O)c2ccc(Oc3ncccc3C(F)(F)F)cc2)c1C was 1

The reported Observed efficacy (%) of the compound COc1cc(CNS(=O)(=O)c2ccc(Oc3ccc(C(F)(F)F)cn3)cc2)ccn1 was 3

The reported Observed efficacy (%) of the compound Cc1cc(Oc2ccc(C(F)(F)F)cn2)ccc1S(=O)(=O)NCc1ccnc(C)c1C was 1

* * *

Observed efficacy (%) values, listed per item
# Tested on: Colletotrichum truncatum
# experimental.details: Synergistic mixtures, microtiter test, Colletotrichum truncatum (Use Example 28)
# Format: cell-based
# applied.conditions: single compound, 4 ppm
I only need the number, in %, no unit after it.

Look over these answered cases.
Cc1cc(Oc2ccc(C(F)(F)F)cn2)ccc1S(=O)(=O)NCc1ccnc(C)c1C; 36
COc1cc(CNS(=O)(=O)c2ccc(Oc3ncccc3C(F)(F)F)cc2)ccn1; 26
Cc1nccc(CNS(=O)(=O)c2ccc(Oc3ccccn3)cc2)c1C; 24
COc1cc(CNS(=O)(=O)c2ccc(Oc3ccccn3)cc2)ccn1; 20

Okay, now this molecule:
The reported Observed efficacy (%) of the molecule Cc1nccc(CNS(=O)(=O)c2ccc(Oc3ccc(Br)cn3)cc2)c1C was 29
